Tested on: MCF-7 cells
Experiment: MCF-7 GI50 determination (crystal violet growth inhibition)
Assay type: cell-based, human
Details: Homo sapiens, MCF7, 96 h, read-out: MCF-7 Cells GI50 (nM)
Parameter measured: GI50 (nM)
Numeric only. Scale: nM

{"Entry smiles": "CC[C@]1(O)C[C@H]2CN(CCc3c([nH]c4cc(I)c(I)cc34)[C@@](C(=O)OC)(c3cc4c(cc3OC)N(C=O)[C@H]3[C@@](O)(C(=O)OC)[C@H](OC(C)=O)[C@]5(CC)C=CCN6CC[C@]43[C@@H]65)C2)C1", "GI50 [nM]": 30}

Next compound, GI50 to be filled in.
Give GI50 for CC[C@]1(O)C[C@H]2CN(CCc3c([nH]c4ccc(N5CCCC5)cc34)[C@@](C(=O)OC)(c3cc4c(cc3OC)N(C)[C@H]3[C@@](O)(C(=O)OC)[C@H](OC(C)=O)[C@]5(CC)C=CCN6CC[C@]43[C@@H]65)C2)C1 tested on MCF-7 cells.
60

###

System: MCF-7 cells
Experiment: MCF-7 GI50 determination (crystal violet growth inhibition)
Type: cell-based, human
Conditions: Homo sapiens, MCF7, 96 h; MCF-7 cells, 4 days of treatment, crystal violet; read-out: MCF-7 Cells GI50
GI50 listing for selected compounds.
Give the value in nM but do not write nM after it.

Check out these entries, answers already filled in.
{"Compound": "CC[C@]1(O)C[C@H]2CN(CCc3c([nH]c4ccc(C#N)cc34)[C@@](C(=O)OC)(c3cc4c(cc3OC)N(C)[C@H]3[C@@](O)(C(=O)OC)[C@H](OC(C)=O)[C@]5(CC)C=CCN6CC[C@]43[C@@H]65)C2)C1 [Example 65, 12′-cyanovinblastine]", "Readout value": 3}
{"Compound": "C=Cc1ccc2[nH]c3c(c2c1)CCN1C[C@H](C[C@@](O)(CC)C1)C[C@]3(C(=O)OC)c1cc2c(cc1OC)N(C)[C@H]1[C@@](O)(C(=O)OC)[C@H](OC(C)=O)[C@]3(CC)C=CCN4CC[C@]21[C@@H]43 [Example 25, 12′-vinylvinblastine]", "Readout value": 9}
{"Compound": "CC[C@]1(O)C[C@H]2CN(CCc3c([nH]c4ccc(N)cc34)[C@@](C(=O)OC)(c3cc4c(cc3OC)N(C)[C@H]3[C@@](O)(C(=O)OC)[C@H](OC(C)=O)[C@]5(CC)C=CCN6CC[C@]43[C@@H]65)C2)C1 [Example 80, 12′-aminovinblastine]", "Readout value": 200}

Identify the reported GI50 for the following entry. CC#Cc1ccc2[nH]c3c(c2c1)CCN1C[C@H](C[C@@](O)(CC)C1)C[C@]3(C(=O)OC)c1cc2c(cc1OC)N(C)[C@H]1[C@@](O)(C(=O)OC)[C@H](OC(C)=O)[C@]3(CC)C=CCN4CC[C@]21[C@@H]43 [Example 18, 12′-propynylvinblastine]
300

###

Here, each record is paired with measured GI50 data.
Test system: MCF-7 cells
Test: MCF-7 GI50 determination (crystal violet growth inhibition)
Format: cell-based, human
Conditions: Homo sapiens, MCF7, 96 h; MCF-7 cells, 4 days of treatment, crystal violet; read-out: MCF-7 Cells GI50
Field: numeric (nM). Do not append units.

{"Compound": "CC[C@]1(O)C[C@H]2CN(CCc3c([nH]c4ccc(SSC)cc34)[C@@](C(=O)OC)(c3cc4c(cc3OC)N(C)[C@H]3[C@@](O)(C(=O)OC)[C@H](OC(C)=O)[C@]5(CC)C=CCN6CC[C@]43[C@@H]65)C2)C1", "Readout value": 300}
{"Compound": "CCSc1ccc2[nH]c3c(c2c1)CCN1C[C@H](C[C@@](O)(CC)C1)C[C@]3(C(=O)OC)c1cc2c(cc1OC)N(C=O)[C@H]1[C@@](O)(C(=O)OC)[C@H](OC(C)=O)[C@]3(CC)C=CCN4CC[C@]21[C@@H]43 [Example 40, 12′-(ethylsulfanyl) vincristine]", "Readout value": 8}
{"Compound": "CCc1ccc2[nH]c3c(c2c1)CCN1C[C@H](C[C@@](O)(CC)C1)C[C@]3(C(=O)OC)c1cc2c(cc1OC)N(C=O)[C@H]1[C@@](O)(C(=O)OC)[C@H](OC(C)=O)[C@]3(CC)C=CCN4CC[C@]21[C@@H]43", "Readout value": 10}

Consider now this further compound.
Return GI50 for the following compound: CCc1ccc2[nH]c3c(c2c1)CCN1C[C@H](C[C@@](O)(CC)C1)C[C@]3(C(=O)OC)c1cc2c(cc1OC)N(C)[C@H]1[C@@](O)(C(=O)OC)[C@H](OC(C)=O)[C@]3(CC)C=CCN4CC[C@]21[C@@H]43
0.6

###

The entries below come with measured GI50 values attached.
System: MCF-7 cells
Test: MCF-7 GI50 determination (crystal violet growth inhibition)
Format: cell-based, human
Details: Homo sapiens, MCF7, 96 h; MCF-7 cells, 4 days of treatment, crystal violet; read-out: MCF-7 Cells GI50
Description: Growth inhibition (GI50) values were measured on the human breast carcinoma line, MCF-7. MCF-7 cells were plated at 2×10^4 cells/well in 96 well plates and grown for 24 hours in drug free media. On day 2, test compounds were added to the plates at 10-fold dilutions. […] The crystal violet was then solubilized by the addition of 10% acetic acid for 15 min and quantified by measuring absorbance at 570 nm on a Molecular Devices microplate reader. […]

{"Compound": "CC[C@]1(O)C[C@H]2CN(CCc3c([nH]c4ccc(C=O)cc34)[C@@](C(=O)OC)(c3cc4c(cc3OC)N(C)[C@H]3[C@@](O)(C(=O)OC)[C@H](OC(C)=O)[C@]5(CC)C=CCN6CC[C@]43[C@@H]65)C2)C1 [Example 61, 12′-formylvinblastine]", "GI50": "3 nM"}
{"Compound": "CC[C@]1(O)C[C@H]2CN(CCc3c([nH]c4ccc(SCCCO)cc34)[C@@](C(=O)OC)(c3cc4c(cc3OC)N(C)[C@H]3[C@@](O)(C(=O)OC)[C@H](OC(C)=O)[C@]5(CC)C=CCN6CC[C@]43[C@@H]65)C2)C1 [Example 33]", "GI50": "30 nM"}
{"Compound": "CC[C@]1(O)C[C@H]2CN(CCc3c([nH]c4ccc(N(C)C)cc34)[C@@](C(=O)OC)(c3cc4c(cc3OC)N(C)[C@H]3[C@@](O)(C(=O)OC)[C@H](OC(C)=O)[C@]5(CC)C=CCN6CC[C@]43[C@@H]65)C2)C1 [Example 81, 12′-(N,N-dimethylamino)vinblastine]", "GI50": "50 nM"}

Continue with the next compound.
Report GI50, nothing else, for this compound: CC[C@]1(O)C[C@H]2CN(CCc3c([nH]c4ccc(C=O)cc34)[C@@](C(=O)OC)(c3cc4c(cc3OC)N(C=O)[C@H]3[C@@](O)(C(=O)OC)[C@H](OC(C)=O)[C@]5(CC)C=CCN6CC[C@]43[C@@H]65)C2)C1 [Example 62, 12′-formylvincristine]
30 nM

###

System: MCF-7 cells
Test: MCF-7 GI50 determination (crystal violet growth inhibition)
Format: cell-based, human
Conditions: Homo sapiens, MCF7, 96 h; MCF-7 cells, 4 days of treatment, crystal violet; read-out: MCF-7 Cells GI50
Parameter measured: GI50
The answer should read as a number with its unit following.

Examples with answers:
{"Compound": "CCCCC#Cc1ccc2[nH]c3c(c2c1)CCN1C[C@H](C[C@@](O)(CC)C1)C[C@]3(C(=O)OC)c1cc2c(cc1OC)N(C)[C@H]1[C@@](O)(C(=O)OC)[C@H](OC(C)=O)[C@]3(CC)C=CCN4CC[C@]21[C@@H]43", "Experimental target": "MCF-7 cells", "GI50": "50 nM"}
{"Compound": "CC[C@]1(O)C[C@H]2CN(CCc3c([nH]c4ccc(C#N)cc34)[C@@](C(=O)OC)(c3cc4c(cc3OC)N(C=O)[C@H]3[C@@](O)(C(=O)OC)[C@H](OC(C)=O)[C@]5(CC)C=CCN6CC[C@]43[C@@H]65)C2)C1", "Experimental target": "MCF-7 cells", "GI50": "4 nM"}
{"Compound": "CCSc1ccc2[nH]c3c(c2c1)CCN1C[C@H](C[C@@](O)(CC)C1)C[C@]3(C(=O)OC)c1cc2c(cc1OC)N(C)[C@H]1[C@@](O)(C(=O)OC)[C@H](OC(C)=O)[C@]3(CC)C=CCN4CC[C@]21[C@@H]43 [Example 41, 12′-(ethylsulfanyl) vinblastine]", "Experimental target": "MCF-7 cells", "GI50": "3 nM"}
{"Compound": "CC[C@]1(O)C[C@H]2CN(CCc3c([nH]c4ccc(SC)cc34)[C@@](C(=O)OC)(c3cc4c(cc3OC)N(C=O)[C@H]3[C@@](O)(C(=O)OC)[C@H](OC(C)=O)[C@]5(CC)C=CCN6CC[C@]43[C@@H]65)C2)C1", "Experimental target": "MCF-7 cells", "GI50": "3 nM"}

Then this compound:
Read off the recorded GI50 for CC[C@]1(O)C[C@H]2CN(CCc3c([nH]c4ccc(SCCO)cc34)[C@@](C(=O)OC)(c3cc4c(cc3OC)N(C)[C@H]3[C@@](O)(C(=O)OC)[C@H](OC(C)=O)[C@]5(CC)C=CCN6CC[C@]43[C@@H]65)C2)C1 [Example 35, 12′-(2-hydroxyethylsulfanyl)vinblastine]
60 nM
